Target: T1, Knl1 residues 1870–2342 (human, UniProt Q8NG31 1870-2342)
T1 construct: Knl1, human, 2,342-residue protein, residues 1870-2342; coordinates traced R2097–H2342; Subunit within the KMN network cryo-EM sample; also called extended version of the Knl1 C terminus; source: High-5 insect cells, expressed and purified as part of KNL1C
T1 sequence (looked up): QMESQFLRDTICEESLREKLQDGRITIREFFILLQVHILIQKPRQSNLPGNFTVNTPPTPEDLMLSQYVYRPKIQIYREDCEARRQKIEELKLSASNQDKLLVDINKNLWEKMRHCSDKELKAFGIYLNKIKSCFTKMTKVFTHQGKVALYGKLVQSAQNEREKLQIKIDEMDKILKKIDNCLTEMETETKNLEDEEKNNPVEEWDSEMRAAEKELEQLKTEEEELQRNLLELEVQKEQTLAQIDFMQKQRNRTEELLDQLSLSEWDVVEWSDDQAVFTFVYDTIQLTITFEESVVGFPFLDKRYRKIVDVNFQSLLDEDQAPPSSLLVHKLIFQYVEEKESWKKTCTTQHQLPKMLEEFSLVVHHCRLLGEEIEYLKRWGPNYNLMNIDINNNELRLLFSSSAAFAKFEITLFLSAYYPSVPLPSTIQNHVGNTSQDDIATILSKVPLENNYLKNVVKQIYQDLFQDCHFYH
Test: cryo-EM structure; NDC80C, MIS12C and KNL1C mixed 1:1:1 and run on Superose 6 in 20 mM HEPES pH 8.0, 80 mM NaCl, 1 mM MgCl2, 1 mM TCEP; about 1 mg/ml on UltrAuFoil grids; 3.0 Å (MIS12C heads 3.8 Å)
Settings: both partners purified
Recorded Endpoint: binding result

Binder: Nsl1 (natural protein, Homo sapiens, UniProt Q96IY1 1-281, looked up, Nsl1, subunit of human MIS12C; Subunit within the KMN network cryo-EM sample; source: High-5 insect cells, expressed and purified as part of MIS12C) MAGSPELVVLDPPWDKELAAGTESQALVSATPREDFRVRCTSKRAVTEMLQLCGRFVQKLGDALPEEIREPALRDAQWTFESAVQENISINGQAWQEASDNCFMDSDIKVLEDQFDEIIVDIATKRKQYPRKILECVIKTIKAKQEILKQYHPVVHPLDLKYDPDPAPHMENLKCRGETVAKEISEAMKSLPALIEQGEGFSQVLRMQPVIHLQRIHQEVFSSCHRKPDAKPENFITQIETTPTETASRKTSDMVLKRKQTKDCPQRKWYPLRPKKINLDT
Result: binds
--
Binder: Dsn1 (natural protein, Homo sapiens, UniProt Q9H410 1-356, looked up, Dsn1, subunit of human MIS12C; Subunit within the KMN network cryo-EM sample; residues N-terminal to Arg92 are disordered; source: High-5 insect cells, expressed and purified as part of MIS12C) MTSVTRSEIIDEKGPVMSKTHDHQLESSLSPVEVFAKTSASLEMNQGVSEERIHLGSSPKKGGNCDLSHQERLQSKSLHLSPQEQSASYQDRRQSWRRASMKETNRRKSLHPIHQGITELSRSISVDLAESKRLGCLLLSSFQFSIQKLEPFLRDTKGFSLESFRAKASSLSEELKHFADGLETDGTLQKCFEDSNGKASDFSLEASVAEMKEYITKFSLERQTWDQLLLHYQQEAKEILSRGSTEAKITEVKVEPMTYLGSSQNEVLNTKPDYQKILQNQSKVFDCMELVMDELQGSVKQLQAFMDESTQCFQKVSVQLGKRSMQQLDPSPARKLLKLQLQNPPAIHGSGSGSCQ
Result: binds
--
Binder: ZWINT (natural protein, human, UniProt O95229 1-277, looked up, ZWINT, human; coordinates traced Q183–G221; Subunit within the KMN network cryo-EM sample; source: High-5 insect cells, expressed and purified as part of KNL1C) MEAAETEAEAAALEVLAEVAGILEPVGLQEEAELPAKILVEFVVDSQKKDKLLCSQLQVADFLQNILAQEDTAKGLDPLASEDTSRQKAIAAKEQWKELKATYREHVEAIKIGLTKALTQMEEAQRKRTQLREAFEQLQAKKQMAMEKRRAVQNQWQLQQEKHLQHLAEVSAEVRERKTGTQQELDRVFQKLGNLKQQAEQERDKLQRYQTFLQLLYTLQGKLLFPEAEAEAENLPDDKPQQPTRPQEQSTGDTMGRDPGVSFKAVGLQPAGDVNLP
Result: binds

Cited source for all entries: paper PMC11189301
